Target: DNA repair protein RAD52 homolog (Homo sapiens, UniProt P43351)
Sequence (P43351 whole entry): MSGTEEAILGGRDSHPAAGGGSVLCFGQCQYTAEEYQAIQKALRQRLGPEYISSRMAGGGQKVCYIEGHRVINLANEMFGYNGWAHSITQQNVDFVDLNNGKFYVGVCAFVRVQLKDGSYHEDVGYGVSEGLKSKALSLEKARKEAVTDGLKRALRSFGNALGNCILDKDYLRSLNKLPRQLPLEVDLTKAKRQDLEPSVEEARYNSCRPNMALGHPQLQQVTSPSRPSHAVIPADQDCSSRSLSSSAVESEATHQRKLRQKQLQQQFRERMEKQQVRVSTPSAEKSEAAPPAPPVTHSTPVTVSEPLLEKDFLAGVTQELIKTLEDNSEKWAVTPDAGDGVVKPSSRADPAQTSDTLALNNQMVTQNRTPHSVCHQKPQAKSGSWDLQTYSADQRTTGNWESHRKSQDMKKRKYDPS
Type: functional, biochemical
Counter-ions that a name gives are not always drawn. Active and inactive are the calls of the source.
Parameter: AC50

Per the record, `NCCCCCC(=O)N/N=C/c1ccc2nccnc2c1` has AC50 of 16.3 µM (active)

Entry `CCCN(CCC)CCCN=C(S)Nc1ccc2nc(N3CCCC3)cc(C)c2c1` , AC50 reported as 9.06 µM (active)

Looking up Oc1ccc(C2CNCCc3c2cc(O)c(O)c3Cl)cc1 (stereo not given) [FENOLDOPAM MESYLATE] , I found its AC50 recorded as 21.7 µM (active)

// AC50 value for `CCOC(=O)c1c(NC(=O)C[n+]2ccc(Cc3ccccc3)cc2)sc(C)c1C` : 20.5 µM (active)

Form: compound = `CN1CCN(CCCC(=O)c2ccc(C3CCCC3)cc2)CC1` ; AC50 = 19.7 µM (active)

###

Target: Voltage-gated N-type calcium channel alpha-1B subunit/Amyloid beta A4 precursor protein-binding family A member 1 (Homo sapiens, UniProt Q00975+Q02410)
Sequence (Q00975 whole entry): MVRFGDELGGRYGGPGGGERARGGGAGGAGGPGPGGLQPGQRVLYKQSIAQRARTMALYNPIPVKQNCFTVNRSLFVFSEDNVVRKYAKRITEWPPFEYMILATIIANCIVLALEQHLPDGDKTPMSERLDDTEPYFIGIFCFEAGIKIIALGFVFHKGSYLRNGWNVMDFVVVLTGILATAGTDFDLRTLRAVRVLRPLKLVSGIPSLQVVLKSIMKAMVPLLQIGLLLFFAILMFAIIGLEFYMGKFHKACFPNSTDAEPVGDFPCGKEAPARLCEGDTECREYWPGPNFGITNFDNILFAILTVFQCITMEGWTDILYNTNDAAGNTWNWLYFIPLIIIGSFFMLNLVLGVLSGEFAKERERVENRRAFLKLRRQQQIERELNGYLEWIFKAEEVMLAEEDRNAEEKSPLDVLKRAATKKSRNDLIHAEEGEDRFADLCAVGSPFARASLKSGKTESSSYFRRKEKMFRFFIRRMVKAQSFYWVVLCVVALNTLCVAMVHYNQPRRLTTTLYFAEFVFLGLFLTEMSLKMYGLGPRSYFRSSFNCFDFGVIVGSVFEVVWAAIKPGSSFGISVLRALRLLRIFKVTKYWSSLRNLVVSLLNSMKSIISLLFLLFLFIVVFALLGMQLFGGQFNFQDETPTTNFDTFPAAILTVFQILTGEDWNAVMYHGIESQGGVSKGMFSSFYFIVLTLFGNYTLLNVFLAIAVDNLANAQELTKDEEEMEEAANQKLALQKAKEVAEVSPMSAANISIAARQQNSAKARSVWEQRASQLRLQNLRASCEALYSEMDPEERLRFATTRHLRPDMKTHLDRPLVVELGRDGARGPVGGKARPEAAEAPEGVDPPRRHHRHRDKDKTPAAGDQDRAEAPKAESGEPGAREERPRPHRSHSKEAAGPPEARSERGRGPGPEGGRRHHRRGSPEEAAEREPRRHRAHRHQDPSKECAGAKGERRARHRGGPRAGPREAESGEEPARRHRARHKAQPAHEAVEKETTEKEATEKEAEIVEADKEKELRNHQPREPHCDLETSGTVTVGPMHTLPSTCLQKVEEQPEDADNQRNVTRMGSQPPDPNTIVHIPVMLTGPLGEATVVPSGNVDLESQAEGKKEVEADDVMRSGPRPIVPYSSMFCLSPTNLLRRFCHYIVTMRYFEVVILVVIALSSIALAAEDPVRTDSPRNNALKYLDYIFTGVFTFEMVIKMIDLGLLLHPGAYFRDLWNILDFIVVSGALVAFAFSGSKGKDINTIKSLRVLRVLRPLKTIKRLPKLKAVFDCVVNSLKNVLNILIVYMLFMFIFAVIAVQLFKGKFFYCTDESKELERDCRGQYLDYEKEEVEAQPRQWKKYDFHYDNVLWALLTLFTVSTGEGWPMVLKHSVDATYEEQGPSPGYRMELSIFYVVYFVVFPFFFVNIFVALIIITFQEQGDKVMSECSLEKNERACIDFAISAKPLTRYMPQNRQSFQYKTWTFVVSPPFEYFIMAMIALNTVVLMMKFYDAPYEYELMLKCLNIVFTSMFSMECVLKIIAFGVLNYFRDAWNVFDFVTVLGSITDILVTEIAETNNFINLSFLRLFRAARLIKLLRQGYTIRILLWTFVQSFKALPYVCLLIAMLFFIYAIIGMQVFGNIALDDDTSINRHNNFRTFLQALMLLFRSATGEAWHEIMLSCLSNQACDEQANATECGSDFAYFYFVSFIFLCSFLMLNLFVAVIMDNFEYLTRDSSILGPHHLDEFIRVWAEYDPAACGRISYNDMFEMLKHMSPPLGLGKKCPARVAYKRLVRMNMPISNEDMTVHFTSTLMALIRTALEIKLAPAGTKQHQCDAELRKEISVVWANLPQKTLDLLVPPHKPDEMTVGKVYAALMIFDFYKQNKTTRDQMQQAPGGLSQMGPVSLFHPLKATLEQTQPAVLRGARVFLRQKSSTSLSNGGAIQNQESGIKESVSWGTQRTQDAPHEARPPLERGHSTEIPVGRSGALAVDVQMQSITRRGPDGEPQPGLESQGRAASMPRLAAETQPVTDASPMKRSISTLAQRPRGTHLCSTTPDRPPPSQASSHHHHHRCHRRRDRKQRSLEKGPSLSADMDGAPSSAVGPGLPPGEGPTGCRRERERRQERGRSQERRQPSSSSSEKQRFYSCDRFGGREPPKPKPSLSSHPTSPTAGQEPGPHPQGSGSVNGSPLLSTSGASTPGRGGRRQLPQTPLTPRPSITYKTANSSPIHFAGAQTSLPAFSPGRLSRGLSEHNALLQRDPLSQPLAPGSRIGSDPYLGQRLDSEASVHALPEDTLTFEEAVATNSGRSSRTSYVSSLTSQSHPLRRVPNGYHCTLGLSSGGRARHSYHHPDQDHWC
Sequence (Q02410 whole entry): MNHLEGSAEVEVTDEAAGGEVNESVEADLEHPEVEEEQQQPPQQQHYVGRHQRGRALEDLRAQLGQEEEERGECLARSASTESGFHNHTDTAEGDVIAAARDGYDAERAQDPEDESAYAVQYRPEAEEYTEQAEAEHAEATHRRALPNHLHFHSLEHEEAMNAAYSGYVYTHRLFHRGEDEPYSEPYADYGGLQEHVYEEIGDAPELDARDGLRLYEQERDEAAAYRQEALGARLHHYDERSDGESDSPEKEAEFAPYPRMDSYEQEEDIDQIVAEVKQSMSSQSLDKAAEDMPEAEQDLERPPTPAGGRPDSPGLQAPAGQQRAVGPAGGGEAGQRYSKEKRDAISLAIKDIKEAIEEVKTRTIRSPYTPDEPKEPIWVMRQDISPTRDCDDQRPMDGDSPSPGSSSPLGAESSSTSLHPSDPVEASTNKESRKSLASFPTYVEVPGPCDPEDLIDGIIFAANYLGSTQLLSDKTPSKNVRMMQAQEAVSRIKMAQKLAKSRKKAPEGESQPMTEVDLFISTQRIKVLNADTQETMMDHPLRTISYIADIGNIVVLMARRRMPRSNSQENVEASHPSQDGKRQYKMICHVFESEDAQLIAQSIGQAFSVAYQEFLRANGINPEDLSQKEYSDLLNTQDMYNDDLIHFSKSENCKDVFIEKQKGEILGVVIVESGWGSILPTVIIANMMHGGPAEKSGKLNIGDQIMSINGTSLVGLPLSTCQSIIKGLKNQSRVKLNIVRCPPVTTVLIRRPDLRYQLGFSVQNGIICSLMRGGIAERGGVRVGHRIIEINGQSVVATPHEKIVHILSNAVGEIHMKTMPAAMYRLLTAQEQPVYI
Format: protein assay
Activity calls are given as the source filed them.
Parameter: IC50

IC50 reported for this compound `Cc1cc(C(=O)N/N=C/c2cc(N=Nc3ccccc3)ccc2O)[nH]n1` : > 50 µM (inactive)

Summary for this compound, N#CC1=C(N)N=C(S)C(C(N)=O)C1c1ccc(Cl)cc1Cl (stereo not drawn) : IC50 is > 50 µM (inactive)

Form field IC50, entry `CC(=O)N(C1=C(Cl)C(=O)c2ccccc2C1=O)c1ccc(C(=O)O)cc1` : 0.225 µM (active)

// `Cc1ccc(NC(=O)CN2C(=O)N/C(=C/c3cccn3-c3ccc(C(=O)O)cc3)C2=O)cc1` : IC50 value = 28.9 µM (active)

IC50 reading for Cc1cc(O)c(C=O)c2c1C(=O)Oc1c(CO)c(O)c3c(c1O2)C(O)OC3=O (stereo not drawn) [SLAZINIC ACID] : 12.5 µM (active)

The compound listed as `O=C(N/N=C/c1ccncc1)c1ccc(NC(=O)c2ccc(Cl)cc2)cc1` has a reported IC50 of > 50 µM (inactive)

IC50 measured on `O=C(O)CCc1ccc(-c2cccs2)o1` = 3.13 µM (active)

Sample `Cc1cccc(-n2cnc3c(c2=O)c2nc4ccccc4nc2n3Cc2ccco2)c1` ; IC50 observed: 0.871 µM (active)

###

Target: Apoptotic protease-activating factor 1 (Homo sapiens, UniProt O14727)
Sequence (O14727 whole entry): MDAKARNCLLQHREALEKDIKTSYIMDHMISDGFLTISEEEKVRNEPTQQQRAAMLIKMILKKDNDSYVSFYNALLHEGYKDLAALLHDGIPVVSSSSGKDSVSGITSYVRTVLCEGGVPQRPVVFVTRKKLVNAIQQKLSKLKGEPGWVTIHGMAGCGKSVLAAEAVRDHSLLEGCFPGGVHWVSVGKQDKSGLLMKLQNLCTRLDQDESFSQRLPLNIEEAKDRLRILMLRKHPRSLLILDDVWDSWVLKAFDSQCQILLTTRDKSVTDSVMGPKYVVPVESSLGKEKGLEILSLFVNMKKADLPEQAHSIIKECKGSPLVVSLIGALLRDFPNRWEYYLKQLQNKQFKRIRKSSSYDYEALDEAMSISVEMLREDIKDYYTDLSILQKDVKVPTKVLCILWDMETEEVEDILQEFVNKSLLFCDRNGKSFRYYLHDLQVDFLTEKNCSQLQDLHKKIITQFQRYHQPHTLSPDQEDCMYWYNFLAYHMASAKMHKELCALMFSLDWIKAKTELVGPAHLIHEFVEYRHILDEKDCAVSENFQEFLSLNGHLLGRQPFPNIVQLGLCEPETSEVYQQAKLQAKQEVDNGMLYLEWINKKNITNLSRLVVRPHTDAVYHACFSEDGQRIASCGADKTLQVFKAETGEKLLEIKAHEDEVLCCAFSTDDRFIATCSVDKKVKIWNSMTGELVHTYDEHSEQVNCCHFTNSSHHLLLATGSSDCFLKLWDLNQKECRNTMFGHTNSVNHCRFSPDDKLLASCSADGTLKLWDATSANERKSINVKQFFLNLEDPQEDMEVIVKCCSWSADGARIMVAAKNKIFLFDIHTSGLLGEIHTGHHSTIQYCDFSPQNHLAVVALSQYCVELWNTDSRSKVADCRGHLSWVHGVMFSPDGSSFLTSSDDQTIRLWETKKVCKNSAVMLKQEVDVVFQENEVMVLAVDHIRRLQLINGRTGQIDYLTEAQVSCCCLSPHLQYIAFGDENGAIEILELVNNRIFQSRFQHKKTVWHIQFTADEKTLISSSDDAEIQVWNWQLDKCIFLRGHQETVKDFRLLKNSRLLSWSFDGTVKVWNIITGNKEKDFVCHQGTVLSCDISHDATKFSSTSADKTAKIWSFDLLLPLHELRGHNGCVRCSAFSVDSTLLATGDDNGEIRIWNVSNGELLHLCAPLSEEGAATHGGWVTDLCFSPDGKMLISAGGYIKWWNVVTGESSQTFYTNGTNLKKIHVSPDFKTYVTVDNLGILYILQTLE
Type: functional
Activity calls are given as the source filed them.
Parameter: IC50

Recorded IC50 (molecule `CC(=O)N(C1=C(Cl)C(=O)c2ccccc2C1=O)c1ccc(C(=O)O)cc1` ): 2.92 µM (active)

The reported IC50 of the molecule `CC1(C)C=C2C(=NN(c3ccccc3)C(N)=C2C#N)CO1` was 1.38 µM (active)

Reported IC50 of `O=C(O)c1ccc(NC2=C(N3CCOCC3)C(=O)c3ccccc3C2=O)cc1` : 35.8 µM (active)

For this molecule ( C=CCN1C=C2C(=O)C(C)(OC(=O)CCC(=O)OC)C(=O)C(Br)=C2C=C1c1ccc(OC)cc1 (stereo not given) ), measured IC50 is 32.6 µM (active)

IC50 reported for this molecule `Clc1ccccc1OCc1nn2c(-c3ccncc3)nnc2s1` : 8.4 µM (active)

Just for reference, ChEMBL document CHEMBL1201862 is where these values come from.
